Cited source for all entries: ChEMBL document CHEMBL1154768

Biological target: Adenosine receptor A3 (Rattus norvegicus, UniProt P28647)
Sequence (P28647 whole entry): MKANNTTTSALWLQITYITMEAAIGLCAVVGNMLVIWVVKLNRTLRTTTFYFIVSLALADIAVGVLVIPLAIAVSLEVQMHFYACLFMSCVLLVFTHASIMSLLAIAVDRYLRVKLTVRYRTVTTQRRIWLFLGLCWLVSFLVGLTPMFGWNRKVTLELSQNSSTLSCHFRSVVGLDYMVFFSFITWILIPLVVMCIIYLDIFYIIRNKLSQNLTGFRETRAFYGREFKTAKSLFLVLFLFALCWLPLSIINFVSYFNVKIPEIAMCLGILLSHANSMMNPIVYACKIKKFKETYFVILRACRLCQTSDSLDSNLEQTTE
READOUT: Ki (nM)
Give bare numbers, in nM.

Any idea what its Ki is? The compound is `CNC(=O)[C@]12C[C@@H]1[C@@H](n1cnc3c(NCc4cccc(Cl)c4)nc(C#CCCC(=O)NCCCCN)nc31)[C@H](O)[C@@H]2O`
8.68

---

Kindly supply the reported Efficacy values for the records listed here.
Target: Adenosine receptor A3 (Homo sapiens)
Experiment: Agonist activity at human recombinant adenosine A3 receptor expressed in CHO cells assessed as inhibition of forskolin-stimulated cAMP production at 10 uM treated 45 mins before forskolin challenge measured after 15 mins by radioimmunoassay relative to NECA
Format: functional, cell-based
One number for each entry, in %.

In [3]: df
Out[3]:
                               smiles_entry                                system   readout  assay_value
0  CNC(=O)[C@]12C[C@@H]1[C@@H](n1cnc3c(NC4CCCC4)nc(Cl)nc31)[C@H](O)[C@@H]2O  Adenosine receptor A3 (Homo sapiens)  Efficacy          101
1  CNC(=O)[C@]12C[C@@H]1[C@@H](n1cnc3c(NCc4cccc(I)c4)ncnc31)[C@H](O)[C@@H]2O  Adenosine receptor A3 (Homo sapiens)  Efficacy          100
2  CNC(=O)[C@]12C[C@@H]1[C@@H](n1cnc3c(NCc4cccc(Cl)c4)nc(C#CCCC(=O)OC)nc31)[C@H](O)[C@@H]2O  Adenosine receptor A3 (Homo sapiens)  Efficacy           90

Consider the additional compound presented here.
Param readout= Efficacy; system= Adenosine receptor A3 (Homo sapiens); entry= `O[C@@H]1[C@H](O)[C@@H]2C[C@@H]2[C@H]1n1cnc2c(NCc3cccc(I)c3)nc(Cl)nc21` ; returns value.
44

---

Biological target: UniProt:P29274
Sequence (P29274 whole entry): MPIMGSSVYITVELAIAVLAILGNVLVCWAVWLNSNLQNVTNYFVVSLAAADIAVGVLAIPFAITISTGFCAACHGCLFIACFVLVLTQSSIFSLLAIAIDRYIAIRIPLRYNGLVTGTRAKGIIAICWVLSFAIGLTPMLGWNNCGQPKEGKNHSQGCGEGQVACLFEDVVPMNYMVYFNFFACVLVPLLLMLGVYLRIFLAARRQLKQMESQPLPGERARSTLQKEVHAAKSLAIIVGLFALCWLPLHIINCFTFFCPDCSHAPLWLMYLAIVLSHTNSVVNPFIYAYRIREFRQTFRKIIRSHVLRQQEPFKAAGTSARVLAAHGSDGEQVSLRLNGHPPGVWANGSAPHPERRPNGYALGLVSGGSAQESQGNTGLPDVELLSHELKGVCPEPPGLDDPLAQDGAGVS
Assay: Inhibition of [3H]CGS21680 binding to human adenosine A2A receptor expressed in HEK293 cells at 10 uM after 60 mins by liquid scintillation counting
Assay type: cell-based
READOUT: inhibition (%)
Numbers only, in %.

Some compounds with recorded inhibition:
SMILES ENTRY	inhibition [%]
CNC(=O)[C@]12C[C@H]1[C@@H](n1cnc3c(NCc4cccc(Cl)c4)nc(C#CCCCC(=O)O)nc31)[C@@H](O)[C@H]2O	9
CNC(=O)[C@]12C[C@@H]1[C@@H](n1cnc3c(NCc4cccc(Cl)c4)nc(C#CCCC(=O)NCCNC(=O)CCCC[C@H]4SC[C@H]5NC(=O)N[C@H]54)nc31)[C@H](O)[C@@H]2O	51
CNC(=O)[C@]12C[C@H]1[C@@H](n1cnc3c(NCc4cccc(Cl)c4)nc(C#CCCCCC(=O)NCCN)nc31)[C@@H](O)[C@H]2O	5
CNC(=O)[C@]12C[C@H]1[C@@H](n1cnc3c(NCc4cccc(Cl)c4)nc(C#CCCC(=O)NCCN)nc31)[C@@H](O)[C@H]2O	8
CNC(=O)[C@]12C[C@@H]1[C@@H](n1cnc3c(NCc4cccc(Cl)c4)nc(C#CCCCC(=O)OC)nc31)[C@H](O)[C@@H]2O	49

Consider the additional compound presented here.
Any idea what its inhibition is? The compound is `CNC(=O)[C@]12C[C@@H]1[C@@H](n1cnc3c(NCc4cccc(Cl)c4)nc(C#CCCCC(=O)NCCN)nc31)[C@H](O)[C@@H]2O`
81

---

Kindly supply the reported inhibition values for the records listed here.
Target: UniProt:P29274
Experiment: Inhibition of [3H]CGS21680 binding to human adenosine A2A receptor expressed in HEK293 cells at 10 uM after 60 mins by liquid scintillation counting
Type: cell-based
Remember to put the unit after the number in your answer.

SMILES ENTRY	SYSTEM	inhibition
CNC(=O)[C@]12C[C@@H]1[C@@H](n1cnc3c(NCc4cccc(Cl)c4)nc(C#CCCC(=O)O)nc31)[C@H](O)[C@@H]2O	UniProt:P29274	24%
NCCNC(=O)CCC#Cc1nc(NCc2cccc(Cl)c2)c2ncn([C@H]3[C@H](O)[C@H](O)[C@@H]4C[C@@H]43)c2n1	UniProt:P29274	35%
CNC(=O)[C@]12C[C@@H]1[C@@H](n1cnc3c(NCc4cccc(Cl)c4)nc(C#CCCC(=O)OC)nc31)[C@H](O)[C@@H]2O	UniProt:P29274	43%
CNC(=O)[C@]12C[C@@H]1[C@@H](n1cnc3c(NCc4cccc(Cl)c4)nc(C#CCCCCC(=O)O)nc31)[C@H](O)[C@@H]2O	UniProt:P29274	38%

Any idea what its inhibition is? The molecule is `CNC(=O)[C@]12C[C@@H]1[C@@H](n1cnc3c(NCc4cccc(Cl)c4)nc(C#CCCC(=O)NCCNC(=O)CCCCCNC(=O)CCCC[C@H]4SC[C@H]5NC(=O)N[C@H]54)nc31)[C@H](O)[C@@H]2O`
47%

---

Target: Adenosine receptor A3 (Homo sapiens)
Assay: Agonist activity at human recombinant adenosine A3 receptor expressed in CHO cells assessed as inhibition of forskolin-stimulated cAMP production at 10 uM treated 45 mins before forskolin challenge measured after 15 mins by radioimmunoassay relative to NECA
Assay type: functional, cell-based
READOUT: Efficacy (%)
Numbers only, in %.

SMILES ENTRY	SYSTEM	UNITS TEXT	Efficacy
O[C@@H]1[C@H](O)[C@@H]2C[C@@H]2[C@H]1n1cnc2c(NC3CCCC3)nc(Cl)nc21	Adenosine receptor A3 (Homo sapiens)	%	95.1
CNC(=O)[C@]12C[C@@H]1[C@@H](n1cnc3c(NCc4cccc(Cl)c4)nc(C#CCCC(=O)NCCN)nc31)[C@H](O)[C@@H]2O	Adenosine receptor A3 (Homo sapiens)	%	96.9
CNC(=O)[C@]12C[C@@H]1[C@@H](n1cnc3c(NCc4cccc(Cl)c4)nc(C#CCCCCC(=O)NCCN)nc31)[C@H](O)[C@@H]2O	Adenosine receptor A3 (Homo sapiens)	%	100

Consider the additional compound presented here.
Any idea what its Efficacy is? The compound is `CNC(=O)[C@]12C[C@@H]1[C@@H](n1cnc3c(NCc4cccc(Cl)c4)nc(C#CCCC(=O)NCCNC(=O)CCCCCNC(=O)CCCC[C@H]4SC[C@H]5NC(=O)N[C@H]54)nc31)[C@H](O)[C@@H]2O`
107

---

Target: Adenosine receptor A3 (Homo sapiens)
Sequence (P0DMS8 whole entry): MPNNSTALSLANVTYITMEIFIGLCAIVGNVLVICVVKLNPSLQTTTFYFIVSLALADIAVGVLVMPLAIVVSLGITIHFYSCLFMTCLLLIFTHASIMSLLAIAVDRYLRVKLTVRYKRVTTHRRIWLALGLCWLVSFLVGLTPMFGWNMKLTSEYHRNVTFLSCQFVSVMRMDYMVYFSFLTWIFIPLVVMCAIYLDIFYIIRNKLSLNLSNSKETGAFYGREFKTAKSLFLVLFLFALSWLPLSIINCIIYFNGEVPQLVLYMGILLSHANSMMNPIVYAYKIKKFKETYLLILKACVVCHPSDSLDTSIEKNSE
Experiment: Agonist activity at human recombinant adenosine A3 receptor expressed in CHO cells assessed as inhibition of forskolin-stimulated cAMP production treated 45 mins before forskolin challenge measured after 15 mins by radioimmunoassay relative to NECA
Type: functional, cell-based
READOUT: IC50 (nM)
One number for each entry, in nM.

Any idea what its IC50 is? The molecule is `CNC(=O)[C@]12C[C@@H]1[C@@H](n1cnc3c(NCc4cccc(Cl)c4)nc(C#CCCC(=O)NCCNC(=O)CCCC[C@H]4SC[C@H]5NC(=O)N[C@H]54)nc31)[C@H](O)[C@@H]2O`
2.5

---

Target: Adenosine receptor A3 (Homo sapiens, UniProt P0DMS8)
Assay: Agonist activity at human recombinant adenosine A3 receptor expressed in CHO cells assessed as inhibition of forskolin-stimulated cAMP production treated 45 mins before forskolin challenge measured after 15 mins by radioimmunoassay relative to NECA
READOUT: EC50
Remember to put the unit after the number in your answer.

Any idea what its EC50 is? The compound is `O[C@@H]1[C@H](O)[C@@H]2C[C@@H]2[C@H]1n1cnc2c(NCc3cccc(I)c3)nc(Cl)nc21`
12 nM

---

Target: Adenosine receptor A1 (Homo sapiens, UniProt P30542)
Sequence (P30542 whole entry): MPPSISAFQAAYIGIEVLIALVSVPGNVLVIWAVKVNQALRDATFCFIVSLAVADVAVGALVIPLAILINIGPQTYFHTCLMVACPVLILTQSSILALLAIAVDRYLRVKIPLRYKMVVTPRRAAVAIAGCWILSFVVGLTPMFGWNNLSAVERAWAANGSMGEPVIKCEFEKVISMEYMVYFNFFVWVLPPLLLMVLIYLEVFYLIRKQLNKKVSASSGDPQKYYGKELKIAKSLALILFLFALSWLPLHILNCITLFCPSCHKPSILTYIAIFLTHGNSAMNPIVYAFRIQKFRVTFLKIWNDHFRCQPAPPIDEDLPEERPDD
Test: Displacement of [3H]NECA from human recombinant adenosine A1 receptor expressed in CHO cells after 60 mins by liquid scintillation counting
Assay type: cell-based
READOUT: Ki (nM)
Answers are plain numbers, in nM.

Some compounds with recorded Ki:
                               smiles_entry  assay_value
0  O[C@@H]1[C@H](O)[C@@H]2C[C@@H]2[C@H]1n1cnc2c(NC3CCCC3)nc(Cl)nc21          109
1  O[C@@H]1[C@H](O)[C@@H]2C[C@@H]2[C@H]1n1cnc2c(NCc3cccc(Cl)c3)ncnc21         1600
2  O[C@@H]1[C@H](O)[C@@H]2C[C@@H]2[C@H]1n1cnc2c(NCc3cccc(I)c3)nc(F)nc21          513
3  O[C@@H]1[C@H](O)[C@@H]2C[C@@H]2[C@H]1n1cnc2c(NCc3cccc(I)c3)ncnc21          839

Param readout= Ki; system= Adenosine receptor A1 (Homo sapiens, UniProt P30542); entry= `CNC(=O)[C@]12C[C@@H]1[C@@H](n1cnc3c(NCc4cccc(Cl)c4)nc(C#CCCC(=O)NCCN)nc31)[C@H](O)[C@@H]2O` ; returns value.
2320
